testDetails: in vivo
settings: male, Wistar, rat, plasma, po, 10 mg/kg
Give AUC(0-t) for every item shown.
Report the value in ng·h/mL with no unit label.

# query: AUC(0-t) of entry `CN1CCc2ccccc2Cc2[nH]c3ccccc3c2CC1` 524

GET /values?readout=AUC(0-t)&item= `CN1CCc2ccccc2Cc2c(c3ccccc3n2C)CC1` 762

* * *

testDetails: in vivo
settings: male, Wistar, rat, plasma, po, 10 mg/kg
measurementKind: Cmax
Include the unit after the number when you answer.

What value of Cmax has been reported for the following molecule? `CN1CCc2ccccc2Cc2c(c3ccccc3n2C)CC1` 170 ng/mL

* * *

Hi there, I'd appreciate the recorded AUC(0-inf) for every entry that follows.
testDetails: in vivo
settings: male, Wistar, rat, plasma, po, 10 mg/kg
Mention the unit after the number when you answer.

Could you tell me which AUC(0-inf) is on file for CN1CCc2ccccc2Cc2c(c3ccccc3n2C)CC1 [MLE300] ? 790 ng·h/mL

What does the record list as AUC(0-inf) for CN1CCc2ccccc2Cc2[nH]c3ccccc3c2CC1 [LE300] ? 577 ng·h/mL

These data points were gathered from paper PMC9964957.
